experiment: in vitro; conditions: human, hela cells, % viability

- molSmiles: "Fc1ccccc1-c1nc2cnccn2c1NCc1cccs1"
  measurementUnits: "%"
  viability at 28.5 h, 10 µM: 90.3
- molSmiles: "COc1ccc(-c2cc(Nc3ccc(N(C)C)cc3)ncn2)cc1OC"
  measurementUnits: "%"
  viability at 28.5 h, 10 µM: 108
- molSmiles: "COc1cccc(NC(=O)c2ccncc2Cl)c1"
  measurementUnits: "%"
  viability at 28.5 h, 10 µM: 96.3
- molSmiles: "O=C(COc1ccc(S(=O)(=O)N2CCCC2)cc1Cl)Nc1ccc2c(c1)OCCO2"
  measurementUnits: "%"
  viability at 28.5 h, 10 µM: 116
- molSmiles: "O=C(CN1C(=O)N2CCCN=C2c2ccc(Cl)cc21)NC1CC1"
  measurementUnits: "%"
  viability at 28.5 h, 10 µM: 89

* * *

experiment: in vitro; conditions: human, hela cells, % viability

- compound: "COc1ccc(-n2c(SC(CN3CCCCC3)CN3CCCC3=O)nc3ccccc3c2=O)cc1 (stereo not drawn) [CBK264891C]"
  measurementUnits: "%"
  viability at 28.5 h, 10 µM: 87.8
- compound: "CCOCCn1cnc2sc(C(=O)Nc3cccc(Cl)c3)c(C)c2c1=O [CBK071854]"
  measurementUnits: "%"
  viability at 28.5 h, 10 µM: 91.8
- compound: "O=c1[nH]c2ncc(-c3ccoc3)nc2n1Cc1cccs1 [CBK064647]"
  measurementUnits: "%"
  viability at 28.5 h, 10 µM: 90.3
- compound: "O=C(Cn1ccc(=O)[nH]c1=O)NCc1ccc(OCC(F)(F)F)cc1 [CBK305041]"
  measurementUnits: "%"
  viability at 28.5 h, 10 µM: 109
- compound: "COc1ccc(C(NC(=O)C2CCC(N)CC2)c2ccccc2C)cn1 (stereo not drawn) [CBK078551]"
  measurementUnits: "%"
  viability at 28.5 h, 10 µM: 92
- compound: "CCNC(=O)N1CC2(CCN(Cc3ccc(OC(F)(F)F)cc3)CC2)c2ccccc21 [CBK126688]"
  measurementUnits: "%"
  viability at 28.5 h, 10 µM: 115
- compound: "CCN1CCN(c2ccc(NC(=O)Cn3cnc4c(=O)n(C)c(=O)n(C)c43)cc2Cl)CC1 [CBK269535]"
  measurementUnits: "%"
  viability at 28.5 h, 10 µM: 94.3
- compound: "OCC1CCCN1c1cncc(-c2ccc(F)cc2F)n1 (stereo not drawn) [CBK065891]"
  measurementUnits: "%"
  viability at 28.5 h, 10 µM: 112
- compound: "O=C(CC1(C(=O)O)CCCC1)NC1CCS(=O)(=O)C1 (stereo not drawn) [CBK286855]"
  measurementUnits: "%"
  viability at 28.5 h, 10 µM: 92.3

* * *

test: in vitro; details: human, hela cells, % viability
Form field: viability at 28.5 h, 10 µM (one value per entry).

- molecule: "O=C(O)c1nccnc1C(=O)N1CCC(O)(c2ccc(Cl)cc2)CC1 [CBK286621]"
  measurementUnits: "%"
  viability at 28.5 h, 10 µM: 87.6
- molecule: "COc1cc(F)cc(OC2CCNCC2)c1NC(=O)C1CCC1 [CBK045912T]"
  measurementUnits: "%"
  viability at 28.5 h, 10 µM: 92.3
- molecule: "CCCC(=O)Nc1ccc(OCCOC(C)(C)C)c(C(C)=O)c1 [CBK305691]"
  measurementUnits: "%"
  viability at 28.5 h, 10 µM: 79.8
- molecule: "COc1ccc(S(=O)(=O)N(C)c2ccc(C(=O)NCc3ccccn3)cc2)cc1 [CBK269099]"
  measurementUnits: "%"
  viability at 28.5 h, 10 µM: 88.1
- molecule: "O=C(NCC(c1ccccc1)c1ccccc1)N1CCN(Cc2ccccc2)CC1 [CBK155651]"
  measurementUnits: "%"
  viability at 28.5 h, 10 µM: 83.9

* * *

test: in vitro; details: human, hela cells, % viability
TRUE if viability at 28.5 h, 10 µM is below 90%. FALSE if not; exact matches included in FALSE.

- compound: "Cn1ccnc1C(NC(=O)N1CCCCC1)c1ccc(F)c(F)c1 (stereo not drawn) [CBK283832]"
  answerLabel: "FALSE"
- compound: "COc1ccc(C(=O)NCC2(c3ccc(OC)c(OC)c3)CCCCC2)c(OC)c1 [CBK067049]"
  answerLabel: "TRUE"
- compound: "CCc1ccc(C(=O)c2ccccc2C(=O)O)cc1 [CBK010776]"
  answerLabel: "FALSE"
- compound: "CCc1nnc2ccc(NCc3ccccc3)nn12 [CBK287888]"
  answerLabel: "FALSE"
- compound: "O=C(Nc1ccc(S(=O)(=O)Nc2nccc(C3Cc4ccccc4C(=O)O3)n2)cc1)c1ccccc1 (stereo not drawn) [CBK267306]"
  answerLabel: "FALSE"
- compound: "CCOc1ccc(-n2c(SCc3nc(-c4ccc(C)cc4)no3)nnc2-c2ccncc2)cc1 [CBK268315]"
  answerLabel: "FALSE"

* * *

assay: in vitro; details: human, hela cells, % viability
Form field: viability at 28.5 h, 10 µM (one value per entry).
measurementName: viability at 28.5 h, 10 µM (%)

- compound: "O=C1NC=CCC12CCCN(S(=O)(=O)c1ccc(F)cc1)C2 (stereo not drawn)"
  measurementUnits: "%"
  assayResult: 93.5
- compound: "CCc1ccc2c(c1)C(CCNC(=O)c1ncoc1C(F)(F)F)C(=O)N2 (stereo not drawn)"
  measurementUnits: "%"
  assayResult: 99.4
- compound: "COc1cccc(CN2CCN(C(=O)c3cccc(F)c3)CC2)c1OC"
  measurementUnits: "%"
  assayResult: 85.1
- compound: "COc1ccc(S(=O)(=O)N2Cc3ccccc3CC2C(=O)Nc2sc3c(c2C#N)CCCC3)cc1 (stereo not drawn)"
  measurementUnits: "%"
  assayResult: 116
- compound: "Cc1nsc(NCc2ccccc2CN2CCCC2CO)c1C#N (stereo not drawn)"
  measurementUnits: "%"
  assayResult: 88.8
- compound: "Cn1c(CN2CCN(c3ccc(C#N)cc3)CC2)nnc1[C@H]1C[C@@H](N)C1"
  measurementUnits: "%"
  assayResult: 109
- compound: "CC1CCCN(C(=O)c2ccc(-n3ccnc3)c(-n3cccc3)c2)C1 (stereo not drawn)"
  measurementUnits: "%"
  assayResult: 95.1
- compound: "CC(C)NC(=O)[C@@H]1CN(C)C[C@]12CCc1ccccc1C2=O"
  measurementUnits: "%"
  assayResult: 93.8
- compound: "O=C(NCCCc1ccc(F)cc1)c1cccc(N2CCCC2=O)c1"
  measurementUnits: "%"
  assayResult: 88.6

* * *

assay: in vitro; details: human, hela cells, % viability
TRUE if viability at 28.5 h, 10 µM is below 90%. FALSE if not; exact matches included in FALSE.

- compound: "CN(C)C(=O)c1ccc(-c2ccc(OC3CCN(C(=O)CCC(=O)N4CCCC4)CC3)nc2)cc1 [CBK155051]"
  answerLabel: "FALSE"
- compound: "CC(=O)Nc1ccc(-c2cncc(NCCCO)n2)cc1 [CBK065598]"
  answerLabel: "FALSE"
- compound: "O=C(CSc1nnc(SCc2cccc3ccccc23)s1)c1ccc(F)cc1 [CBK266218]"
  answerLabel: "FALSE"
- compound: "COc1ccc(OC(C)C(=O)Nc2ccccc2-c2ccccc2)cc1 (stereo not drawn) [CBK266661]"
  answerLabel: "FALSE"
- compound: "Nc1ncc(-c2ccncc2)nc1-c1ccc(C=O)cc1 [CBK064102]"
  answerLabel: "FALSE"
- compound: "COc1cc(/C=N/NC(=O)CCn2c3ccccc3c3ccccc32)ccc1O [CBK262332]"
  answerLabel: "TRUE"
- compound: "NC(=O)c1c(NC(=O)CSc2ccc(Cl)cc2)sc2c1CCCC2 [CBK263101]"
  answerLabel: "TRUE"

* * *

Form field: viability at 28.5 h, 10 µM (one value per entry).
test: in vitro; conditions: human, hela cells, % viability

- compound: "CC1CCN(S(=O)(=O)c2ccc(NC(=O)c3cccc(NC(=O)C(C)C)c3)cc2)CC1"
  viability at 28.5 h, 10 µM: "88%"
- compound: "c1ccc(Oc2nc3ccccc3n3cnnc23)cc1"
  viability at 28.5 h, 10 µM: "91.9%"
- compound: "O=C1C2C(c3ccccc3)NC(c3ccccc3)C1C(c1ccccc1)NC2c1ccccc1 (centres unmarked)"
  viability at 28.5 h, 10 µM: "93%"
- compound: "COc1ccc(-c2cc(C(F)(F)F)nc(SCC(=O)Nc3cccnc3)n2)cc1OC"
  viability at 28.5 h, 10 µM: "103%"
- compound: "COc1cc(-c2noc(-c3cc(-c4ccccc4)n[nH]3)n2)cc(OC)c1OC"
  viability at 28.5 h, 10 µM: "92.3%"
- compound: "Cc1ccc(S(=O)(=O)NCCSCc2ccc(Cl)cc2)cc1[N+](=O)[O-]"
  viability at 28.5 h, 10 µM: "104%"
- compound: "CSc1cccc(C(=O)Nc2sc3c(c2C#N)CCN(C(C)=O)C3)c1"
  viability at 28.5 h, 10 µM: "56%"
- compound: "O=C(O)c1ccc(NS(=O)(=O)c2ccc(C(F)(F)F)cc2[N+](=O)[O-])cc1"
  viability at 28.5 h, 10 µM: "113%"
- compound: "C/C(=N\\NC(=O)CNC(=O)c1ccc(Br)cc1)c1ccccc1"
  viability at 28.5 h, 10 µM: "103%"
- compound: "COc1cccc(CN2CCN(C(=O)C3(C)CC3(Cl)Cl)CC2)c1 (centres unmarked)"
  viability at 28.5 h, 10 µM: "96.7%"
- compound: "COc1ccccc1-c1nc(C2CCCN2C(=O)CCCC(=O)O)n2ccccc12 (centres unmarked)"
  viability at 28.5 h, 10 µM: "90.3%"
- compound: "CC(C)(C)NC(=O)N/N=C/c1[nH]ncc1Br"
  viability at 28.5 h, 10 µM: "96%"
- compound: "Cc1nc2ccc(NC(=O)c3cccc(C(F)(F)F)c3)cc2nc1C"
  viability at 28.5 h, 10 µM: "88.2%"
- compound: "COc1ccc2sc(Nc3ccc(F)cc3)nc2c1"
  viability at 28.5 h, 10 µM: "95.3%"
- compound: "CCOC(=O)C1CCCN(C(=O)Cn2c(C)nc3ccccc3c2=O)C1 (centres unmarked)"
  viability at 28.5 h, 10 µM: "77.9%"
- compound: "Cc1ccc(Cl)cc1N1CCN(C(=O)C2C3C=CC(C3)C2C(=O)O)CC1 (centres unmarked)"
  viability at 28.5 h, 10 µM: "117%"
- compound: "CCOc1ccc(OC(=O)C2CCN(C(=O)CC(C)C)CC2)cc1"
  viability at 28.5 h, 10 µM: "95.3%"
- compound: "Cc1ccc2nc(-c3ccc4c(c3)CC(C)N4S(C)(=O)=O)cn2c1 (centres unmarked)"
  viability at 28.5 h, 10 µM: "79.4%"
- compound: "Cc1cc(C)c(S(=O)(=O)NC(CC(=O)O)c2ccccc2)cc1C (centres unmarked)"
  viability at 28.5 h, 10 µM: "86.8%"
- compound: "CCOc1ccccc1C1C=C(C(=O)O)Nc2c(C(=O)Nc3ccccc3)cnn21 (centres unmarked)"
  viability at 28.5 h, 10 µM: "93.7%"
- compound: "CCOC(=O)CN1CCC(Oc2cncc(OCc3cccnc3)n2)C1 (centres unmarked)"
  viability at 28.5 h, 10 µM: "99.4%"
- compound: "Cc1ccccc1N1C(=O)/C(=C/c2cn(Cc3ccccc3[N+](=O)[O-])c3ccccc23)SC1=S"
  viability at 28.5 h, 10 µM: "101%"
- compound: "COc1ccccc1-c1cn2ccnc2c(NCCc2ccccn2)n1"
  viability at 28.5 h, 10 µM: "107%"
- compound: "Cc1c(S(=O)(=O)Nc2ccc3nsnc3c2)cnn1-c1ccccc1"
  viability at 28.5 h, 10 µM: "87.6%"
- compound: "CS(=O)(=O)c1ccc(-c2ccnc3nc(N)ccc23)cc1"
  viability at 28.5 h, 10 µM: "117%"
- compound: "Nc1cc(C(=O)c2ccc(Br)c(N)c2)ccc1Cl"
  viability at 28.5 h, 10 µM: "86.6%"
- compound: "O=[N+]([O-])c1ccn(C2CC(O)C(CO)O2)c1 (centres unmarked)"
  viability at 28.5 h, 10 µM: "83.7%"
- compound: "COc1ccccc1C(CN)C1CCCCC1 (centres unmarked)"
  viability at 28.5 h, 10 µM: "99.7%"
- compound: "COc1ccccc1-c1ccc(NC(=O)C2(c3cccc(F)c3)CCOCC2)cc1"
  viability at 28.5 h, 10 µM: "103%"
- compound: "CC(C)C(=O)Nc1cc2ccccc2c(-c2cccnc2)n1"
  viability at 28.5 h, 10 µM: "101%"
- compound: "Nc1ccc(-c2nc(NC(=O)Cc3ccccc3)cnc2-c2ccc(F)c(Cl)c2)cc1"
  viability at 28.5 h, 10 µM: "89.5%"
- compound: "CC(C)NC(=S)N1CC[C@@]2(NC(N)=O)N=C(N)O[C@H]2C1"
  viability at 28.5 h, 10 µM: "93.1%"
- compound: "OCCN1CC2(CCN(Cc3c(F)cccc3F)CC2)c2ccccc21"
  viability at 28.5 h, 10 µM: "109%"
- compound: "Cc1nnc(SCC(=O)NC2CC3CCC2C3)[nH]1 (centres unmarked)"
  viability at 28.5 h, 10 µM: "88.1%"
- compound: "CN1N=C(N)c2cn([C@@H]3O[C@H](COP(=O)(O)O)[C@H](O)C3O)c3ncnc1c23 (some centres unmarked)"
  viability at 28.5 h, 10 µM: "73.9%"
- compound: "Nc1nc(N)c2cc(C(F)(F)F)ccc2n1"
  viability at 28.5 h, 10 µM: "66.4%"
- compound: "Cc1noc(C)c1C(=O)N1CCN(Cc2ccco2)C[C@@H]1C(C)C"
  viability at 28.5 h, 10 µM: "93.9%"
- compound: "COc1ccc(-c2ccc3n(c2=O)C[C@H]2C[C@@H]3CN(C(=O)c3ccncc3)C2)cc1"
  viability at 28.5 h, 10 µM: "90.8%"
